Biological target: T1, CRBN, Q96SW2;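 also: pooled lentiviral library of zinc finger degron-EGFP fusions in mCherry-positive Jurkat cells, FACS-sorted after compound exposure, with degron abundance counted by next-generation sequencing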
T1 chain: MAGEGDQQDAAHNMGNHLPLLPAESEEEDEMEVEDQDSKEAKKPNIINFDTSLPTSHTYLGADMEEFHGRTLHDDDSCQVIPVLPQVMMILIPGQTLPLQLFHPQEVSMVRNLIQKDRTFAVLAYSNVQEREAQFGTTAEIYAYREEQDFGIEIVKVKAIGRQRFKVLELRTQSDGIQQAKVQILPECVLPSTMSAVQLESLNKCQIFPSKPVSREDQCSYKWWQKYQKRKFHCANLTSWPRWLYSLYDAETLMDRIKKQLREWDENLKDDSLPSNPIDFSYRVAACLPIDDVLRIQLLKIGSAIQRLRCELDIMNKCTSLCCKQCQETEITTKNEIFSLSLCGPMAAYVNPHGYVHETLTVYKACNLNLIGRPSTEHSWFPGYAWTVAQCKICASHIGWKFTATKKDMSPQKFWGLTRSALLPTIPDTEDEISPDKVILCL
Experiment: log2 fold change of degron read counts, EGFP-low vs EGFP+ sorted cells (limma voom), compound-induced degradation; higher = more compound-induced degradation of the degron-EGFP fusion; degrons are variants of IKZF1/3 zinc finger 2; compound dose not given here
Conditions: Jurkat; 18 h; compound: compound 19 (5-tert-butyl-thalidomide)
The full ranking holds about 8,300 sequences; the median of “log2 fold change of degron read counts, EGFP-low vs EGFP+ sorted cells (limma voom), compound-induced degradation” is about -1.1, and the highest 2% start at about 3.2. Shown is part of a subset that was picked to be rich in the highest values.
Measurement Label: log2 fold change of degron read counts
When you answer, write just the number.

Solved entries:
Incoming: Dear colleague, I am looking for the recorded log2 fold change of degron read counts of the following sequence: FLCEICGAQFTQKGNLLRHIKL [46F_47L_49E_50I_52G_53A_54Q_55F_67L_, Q9UKT9]
Outgoing: 1.29

Incoming: Same question for FVCPVCGAAFTQKGNLLRHIKL [46F_47V_49P_50V_52G_53A_54A_55F_67L_, Q9UKT9] please.
Outgoing: 0.708

Incoming: What do we get for FMCNICGASFTQKGNLLRHIKL [46F_47M_49N_50I_52G_53A_54S_55F_67L_, Q9UKT9] ?
Outgoing: -0.622

Others:
Incoming: // lookup log2 fold change of degron read counts for FTCPICGAIFTQKGNLLRHIKL [46F_47T_49P_50I_52G_53A_54I_55F_67L_, Q9UKT9]
Outgoing: -0.365

Incoming: # repeat for FECPICGHKFTQKGNLLRHIKL [46F_47E_49P_50I_52G_53H_54K_55F_67L_, Q9UKT9]
Outgoing: -3.48

Incoming: Then what about the sequence FYCNICGASFTQKGNLLRHIKL [46F_47Y_49N_50I_52G_53A_54S_55F_67L_, Q9UKT9] ?
Outgoing: 2.45

Incoming: // repeat for LQCPICGFKCTQKGNLLRHIKL [46L_47Q_49P_50I_52G_53F_54K_55C_67L_, Q9UKT9] and report
Outgoing: 0.793

Incoming: Now try LVCPICGFKCTQKGNLLRHIKL [46L_47V_49P_50I_52G_53F_54K_55C_67L_, Q9UKT9] .
Outgoing: 0.655

Incoming: Quick one: FICEICGAQFTQKGNLLRHIKL [46F_47I_49E_50I_52G_53A_54Q_55F_67L_, Q9UKT9]
Outgoing: 0.506

Incoming: Also, FRCPVCGAVFTQKGNLLRHIKL [46F_47R_49P_50V_52G_53A_54V_55F_67L_, Q9UKT9] please.
Outgoing: -1.2

Incoming: Repeat with FFCPICGRAFTQKGNLLRHIKL [46F_47F_49P_50I_52G_53R_54A_55F_67L_, Q9UKT9]
Outgoing: -0.764

Incoming: Thanks! And FVCEICGAWFTQKGNLLRHIKL [46F_47V_49E_50I_52G_53A_54W_55F_67L_, Q9UKT9] ?
Outgoing: -1.2

Incoming: LGCPICGFKCTQKGNLLRHIKL [46L_47G_49P_50I_52G_53F_54K_55C_67L_, Q9UKT9] ?
Outgoing: 3.67

Incoming: Also FECEICGAQFTQKGNLLRHIKL [46F_47E_49E_50I_52G_53A_54Q_55F_67L_, Q9UKT9] ?
Outgoing: -0.353

Incoming: Let us now turn to FWCNICGASFTQKGNLLRHIKL [46F_47W_49N_50I_52G_53A_54S_55F_67L_, Q9UKT9]
Outgoing: 2.6

Incoming: Try this sequence too: FFCPICGHVFTQKGNLLRHIKL [46F_47F_49P_50I_52G_53H_54V_55F_67L_, Q9UKT9]
Outgoing: -0.996

Incoming: Another sequence to look at: FVCPQCGAAFTQKGNLLRHIKL [46F_47V_49P_50Q_52G_53A_54A_55F_67L_, Q9UKT9]
Outgoing: -1.44

Incoming: // query: LFCPICGFKCTQKGNLLRHIKL [46L_47F_49P_50I_52G_53F_54K_55C_67L_, Q9UKT9]
Outgoing: 2.81
